experiment.summary: Solubility
Think of 400 µM as a floor: if solubility stands on it or above, it is yes; beneath it, no.

1. C=C(C)[C@@H]1CC[C@]2(C(=O)O)CC[C@]3(C)[C@H](CC[C@@H]4[C@@]5(C)CC[C@H](OC(=O)c6cc(OC)c(OC)cc6C(=O)O)C(C)(C)[C@@H]5CC[C@]43C)[C@@H]12 : no
2. CC1(C)CCC23CCC4(C)C5(C)CCC6C(C)(C)C(OC(=O)c7c(F)ccc(F)c7C(=O)O)CCC6(C)C5CC(O)C4(OC2=O)C3C1 (stereo not shown) : no
3. C=C(C)[C@@H]1CC[C@]2(C(=O)O)CC[C@]3(C)[C@H](CC[C@@H]4[C@@]5(C)CC[C@H](OC(=O)c6ccccc6C(=O)O)C(C)(C)[C@@H]5CC[C@]43C)[C@@H]12 : no
4. CC1(C)CCC23CCC4(C)C5(C)CCC6C(C)(C)C(OC(=O)c7cc(F)c(F)cc7C(=O)O)CCC6(C)C5CC(O)C4(OC2=O)C3C1 (stereo not shown) : no
5. C=C(C)[C@@H]1CC[C@]2(C(=O)O)CC[C@]3(C)[C@H](CC[C@@H]4[C@@]5(C)CC[C@H](OC(=O)c6cc(F)c(F)cc6C(=O)O)C(C)(C)[C@@H]5CC[C@]43C)[C@@H]12 : no
6. C[C@H]1[C@H](C)CC[C@]2(C(=O)O)CC[C@]3(C)C(=CC[C@@H]4[C@@]5(C)CC[C@H](OC(=O)c6cc(F)c(F)cc6C(=O)O)C(C)(C)[C@@H]5CC[C@]43C)[C@H]12 : no
7. CC(C=O)[C@@H]1CC[C@]2(C(=O)O)CC[C@]3(C)[C@H](CC[C@@H]4[C@@]5(C)CC[C@H](OC(=O)c6ccccc6C(=O)O)C(C)(C)[C@@H]5CC[C@]43C)[C@@H]12 (stereo partly shown) : yes
8. C=C(C)[C@@H]1CC[C@]2(C(=O)O)CC[C@]3(C)[C@H](CC[C@@H]4[C@@]5(C)CC[C@H](OC(=O)c6nccnc6C(=O)O)C(C)(C)[C@@H]5CC[C@]43C)[C@@H]12 : yes
